Molecular target: CCR2 (Homo sapiens)
Sequence (P41597 1-360 isoform P41597-2): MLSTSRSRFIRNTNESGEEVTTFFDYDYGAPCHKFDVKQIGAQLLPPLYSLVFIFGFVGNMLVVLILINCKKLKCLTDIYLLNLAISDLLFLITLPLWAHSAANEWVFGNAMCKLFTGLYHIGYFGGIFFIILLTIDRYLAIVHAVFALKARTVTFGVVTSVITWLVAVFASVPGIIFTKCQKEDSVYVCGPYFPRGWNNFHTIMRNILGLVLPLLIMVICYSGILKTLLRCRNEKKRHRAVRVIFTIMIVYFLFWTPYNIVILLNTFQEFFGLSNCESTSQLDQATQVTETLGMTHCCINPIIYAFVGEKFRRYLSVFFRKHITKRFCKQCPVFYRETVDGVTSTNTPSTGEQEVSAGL
Experiment: MCP-1 Receptor Binding Assay in THP-1 Cells
Details: MCP-1 binding to CCR2; test concentration of 25 μM, unless indicated otherwise; read-out: % Inhibition Ligand Binding
Decision: inhibition at 25 µM >= 40% yields YES, all other cases yield NO.

Dear colleague, could you confirm whether Cc1oc(-c2ccc(Cl)cc2)cc1C(=O)NCc1ccc(C[N+](C)(C)C2CCOCC2)cc1 [Cpd 150] has inhibition at 25 µM at or above 40%?
NO

Dear colleague, could you confirm whether Cc1c(Cl)cccc1C(=O)Nc1ccc(C[N+](C)(C)C2CCOCC2)cc1 [Cpd 25] has inhibition at 25 µM at or above 40%?
NO

Values were extracted from patent US7799824B2.
